Target: GST-Shc PTB domain fusion protein (human)
Test: SPR (Biacore) competition; 1 µM GST-Shc PTB over the immobilized polyoma middle T phosphopeptide (competitor m11)
observable: IC50
Please answer using a numeric value trailed by its unit.

Param item = Wt NGF receptor phosphopeptide His-Ile-Ile-Glu-Asn-Pro-Gln-P.Tyr-Phe-Ser-Asp ; retrieve measured IC50.
175 nM

---

Target: Shc PTB domain (Homo sapiens)
Construct: containing 1 μM GST-Shc PTB domain fusion protein; made in house
Assay: Surface plasmon resonance competition of GST-Shc PTB domain binding to immobilized polyoma middle T antigen phosphopeptide
Square brackets hold non-standard residues; d marks the D form. Peptide text beside a SMILES is read from it. pY = N[C@@H](Cc1ccc(OP(=O)(O)O)cc1)C(=O)O
observable: IC50 (nM)
Number in nM, nothing else.

Reference set, count: 4
CC[C@H](C)[C@H](NC(=O)[C@@H](NC(=O)[C@@H](N)Cc1c[nH]cn1)[C@@H](C)CC)C(=O)N[C@@H](CCC(=O)O)C(=O)N[C@@H](CC(N)=O)C(=O)N1CCC[C@H]1C(=O)N[C@@H](CCC(N)=O)C(=O)N[C@@H](Cc1ccc(OP(=O)(O)O)cc1)C(=O)N[C@@H](Cc1ccccc1)C(=O)N[C@@H](CO)C(=O)N[C@@H](CC(=O)O)C(=O)O [H-I-I-E-N-P-Q-P.Y-F-S-D] (H-HIIENPQ[pY]FSD-OH) | 175
CC[C@H](C)[C@H](NC(=O)[C@@H](N)Cc1c[nH]cn1)C(=O)N[C@@H](C)C(=O)N[C@@H](CCC(=O)O)C(=O)N[C@@H](CC(N)=O)C(=O)N1CCC[C@H]1C(=O)N[C@@H](CCC(N)=O)C(=O)N[C@@H](Cc1ccc(OP(=O)(O)O)cc1)C(=O)N[C@@H](Cc1ccccc1)C(=O)N[C@@H](CO)C(=O)N[C@@H](CC(=O)O)C(=O)O [H-I-A-E-N-P-Q-P.Y-F-S-D] (H-HIAENPQ[pY]FSD-OH) | 250
C[C@H](NC(=O)[C@H](C)NC(=O)[C@@H](N)Cc1c[nH]cn1)C(=O)N[C@@H](CCC(=O)O)C(=O)N[C@@H](CC(N)=O)C(=O)N1CCC[C@H]1C(=O)N[C@@H](CCC(N)=O)C(=O)N[C@@H](Cc1ccc(OP(=O)(O)O)cc1)C(=O)N[C@@H](Cc1ccccc1)C(=O)N[C@@H](CO)C(=O)N[C@@H](CC(=O)O)C(=O)O [H-A-A-E-N-P-Q-P.Y-F-S-D, H-A-A-E-N-P-Q-p.Y-F-S-D] (H-HAAENPQ[pY]FSD-OH) | 475
CC[C@H](C)[C@H](NC(=O)[C@H](C)NC(=O)[C@@H](N)Cc1c[nH]cn1)C(=O)N[C@@H](CCC(=O)O)C(=O)N[C@@H](CC(N)=O)C(=O)N1CCC[C@H]1C(=O)N[C@@H](CCC(N)=O)C(=O)N[C@@H](Cc1ccc(OP(=O)(O)O)cc1)C(=O)N[C@@H](Cc1ccccc1)C(=O)N[C@@H](CO)C(=O)N[C@@H](CC(=O)O)C(=O)O [H-A-I-E-N-P-Q-P.Y-F-S-D] (H-HAIENPQ[pY]FSD-OH) | 20

Next compound, IC50 to be filled in.
// map CC[C@H](C)[C@H](N)C(=O)N[C@@H](CCC(=O)O)C(=O)N[C@@H](CC(N)=O)C(=O)N1CCC[C@H]1C(=O)N[C@@H](CCC(N)=O)C(=O)N[C@@H](Cc1ccc(OP(=O)(O)O)cc1)C(=O)N[C@@H](Cc1ccccc1)C(=O)N[C@@H](CO)C(=O)N[C@@H](CC(=O)O)C(=O)O [IENPQpYFSD] (H-IENPQ[pY]FSD-OH) to recorded IC50 (system: Shc PTB domain (Homo sapiens))
4000

---

Target: Shc PTB domain (Homo sapiens, UniProt P29353)
Construct: containing 1 μM GST-Shc PTB domain fusion protein; made in house
Experiment: Surface plasmon resonance competition of GST-Shc PTB domain binding to immobilized polyoma middle T antigen phosphopeptide
Conditions: peptide concentration inhibiting by 50% binding of 1 μM GST-Shc PTB domain to immobilized polyoma middle T antigen phosphopeptide; read-out: IC 50
Experimental: Surface plasmon resonance analysis was carried out using a Biacore apparatus (Pharmacia Biosensor) as described previously (Puil et al., 1994). […] The amount of bound GST-Shc PTB domain was estimated from the surface plasmon resonance signal at a fixed time following the end of the injection and the percentage bound, relative to injection of GST-Shc PTB domain alone, calculated. […]
Square brackets hold non-standard residues; d marks the D form. Peptide text beside a SMILES is read from it. pY = N[C@@H](Cc1ccc(OP(=O)(O)O)cc1)C(=O)O
Each record here notes measured IC50.
Number in µM, nothing else.

CC[C@H](C)[C@H](NC(=O)[C@@H](NC(=O)[C@@H](N)Cc1c[nH]cn1)[C@@H](C)CC)C(=O)N[C@@H](CCC(=O)O)C(=O)N[C@@H](CC(N)=O)C(=O)N[C@@H](C)C(=O)N[C@@H](CCC(N)=O)C(=O)N[C@@H](Cc1ccc(OP(=O)(O)O)cc1)C(=O)N[C@@H](Cc1ccccc1)C(=O)N[C@@H](CO)C(=O)N[C@@H](CC(=O)O)C(=O)O [H-I-I-E-N-A-Q-P.Y-F-S-D] (H-HIIENAQ[pY]FSD-OH) | 2.5
CC[C@H](C)[C@H](NC(=O)[C@H](C)NC(=O)[C@@H](N)Cc1ccc(O)cc1)C(=O)N[C@@H](CO)C(=O)N[C@@H](CC(N)=O)C(=O)N1CCC[C@H]1C(=O)N[C@@H](CCC(=O)O)C(=O)N[C@@H](Cc1ccc(OP(=O)(O)O)cc1)C(=O)N[C@@H](CC(C)C)C(=O)N[C@@H](CO)C(=O)N[C@@H](C)C(=O)O [Y-A-I-S-N-P-E-P.Y-L-S-A] (H-YAISNPE[pY]LSA-OH) | 0.09
CC[C@H](C)[C@H](NC(=O)[C@@H](NC(=O)[C@@H](N)Cc1c[nH]cn1)[C@@H](C)CC)C(=O)N[C@@H](CCC(=O)O)C(=O)N[C@@H](C)C(=O)N1CCC[C@H]1C(=O)N[C@@H](CCC(N)=O)C(=O)N[C@@H](Cc1ccc(OP(=O)(O)O)cc1)C(=O)N[C@@H](Cc1ccccc1)C(=O)N[C@@H](CO)C(=O)N[C@@H](CC(=O)O)C(=O)O [H-I-I-E-A-P-Q-P.Y-F-S-D] (H-HIIEAPQ[pY]FSD-OH) | 80
C[C@H](NC(=O)[C@@H](N)Cc1c[nH]cn1)C(=O)N[C@@H](CO)C(=O)N[C@@H](CCC(=O)O)C(=O)N[C@@H](CC(N)=O)C(=O)N1CCC[C@H]1C(=O)N[C@@H](CCC(N)=O)C(=O)N[C@@H](Cc1ccc(OP(=O)(O)O)cc1)C(=O)N[C@@H](Cc1ccccc1)C(=O)N[C@@H](CO)C(=O)N[C@@H](CC(=O)O)C(=O)O [H-A-S-E-N-P-Q-P.Y-F-S-D, H-A-S-E-N-P-Q-p.Y-F-S-D] (H-HASENPQ[pY]FSD-OH) | 15

Next molecule, IC50 to be filled in.
// map CC(C)C[C@H](NC(=O)[C@H](Cc1ccc(OP(=O)(O)O)cc1)NC(=O)[C@H](CCC(=O)O)NC(=O)[C@@H]1CCCN1C(=O)[C@H](CC(N)=O)NC(=O)[C@H](CO)NC(=O)[C@H](CO)NC(=O)[C@H](C)NC(=O)[C@@H](N)Cc1ccc(O)cc1)C(=O)N[C@@H](CO)C(=O)N[C@@H](C)C(=O)O [Y-A-S-S-N-P-E-P.Y-L-S-A, Y-A-S-S-N-P-E-p.Y-L-S-A] (H-YASSNPE[pY]LSA-OH) to recorded IC50 (system: Shc PTB domain (Homo sapiens, UniProt P29353))
7

Reference source for all entries: patent US6028053A
